assayedSystem: IL-6 (Homo sapiens, UniProt P05231)
Sequence (P05231 30-212, species assumed): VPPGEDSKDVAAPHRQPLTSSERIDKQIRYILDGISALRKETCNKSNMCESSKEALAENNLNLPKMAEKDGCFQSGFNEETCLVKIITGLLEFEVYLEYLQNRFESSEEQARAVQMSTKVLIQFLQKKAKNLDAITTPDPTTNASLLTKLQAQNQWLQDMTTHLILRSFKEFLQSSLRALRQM
assayProcedure: Immunoassay binding test, IL-6 (gp130 receptor, IL-6Ra present)
runParameters: IL-6Ra 200 ng/ml
quantityName: BINDING IL6 % Neutra at 100 μM (%)

Solved cases below.
CCCN(CCOCCN(Cc1cccnc1F)Cc1cn(S(=O)(=O)c2ccccc2)c2ccccc12)C1CCCCC1 [Compound 101]: 0
O=S(=O)(c1ccccc1)n1cc(CN(CCCCCNC2CCCCC2)Cc2cccc(F)n2)c2ccccc21: 1
FC(F)(F)c1cccc(-n2cc(CN(Cc3ccccn3)CC3CCCN(C4CCCCC4)C3)c3ccccc32)c1 (stereo not drawn): 2
O=S(=O)(c1ccccc1)n1cc(CN(CCCCNC2CCCCC2)Cc2cccnc2)c2ccccc21: 11.5
O=S(=O)(c1ccccc1)n1cc(CN(CCCCNC2CCC2)Cc2cccnc2F)c2ccccc21: 0
O=S(=O)(c1ccccc1)n1cc(CN(CCCCNC2CCCCCC2)Cc2cccnc2F)c2ccccc21: 0
FC(F)(F)c1cccc(-n2cc(CN(CCNC3CCCCC3)Cc3cccnc3)c3ccccc32)c1: 16.8

[1] CN(CCCCN(Cc1cccnc1)Cc1cn(S(=O)(=O)c2ccccc2)c2ccccc12)C1CCCCC1
[2] CN(CCCCN(Cc1ccn(S(=O)(=O)c2ccccc2)c1)Cc1cccnc1F)C1CCCCC1
In: Between these two entries, 1 and 2 , state which has the higher BINDING IL6 % Neutra at 100 μM. Please identify the chosen entry by its label.
Out: 1

Data origin, for the record: patent US20230416239A1
